Experiment: chemical genetic growth profiling, strain panel (AID 1159580);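 also: tested at 20 µM; growth read once vehicle control cultures reached saturation at 30 °C; 1 = growth at the plate median or of vehicle wells; lower values mean less growth of the strain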
Conditions: S. cerevisiae deletion strains, growth OD, locus YOL136C, strain PFK27, hits give low values
Out of some 5,500 compounds screened, about 2,000 (36%) were called active. About 18% were inconclusive and are not listed. This is one part of the list.
Cut-off 0.7 on normalized growth: below means satisfied, at or above means not satisfied.

COMPOUND: Cc1ccc(C)n1-c1ccc(/C=C2/C(=O)Nc3ccccc32)cc1
GROUP_LABEL: not satisfied
--
COMPOUND: COc1cc(Br)cc(C=Nc2ccc(Sc3ccccc3)nc2Sc2ccccc2)c1O
GROUP_LABEL: not satisfied
--
COMPOUND: Cc1cc(Oc2ccc(C(F)(F)F)cc2NS(C)(=O)=O)cc(C)c1Cl
GROUP_LABEL: not satisfied

Strictly below 0.7 in normalized growth? "O=C(Nc1ccccc1)Nc1ccc(Cl)cc1[N+](=O)[O-]" not satisfied

Okay, and "O=C1Nc2ccccc2/C1=C/c1ccc(Oc2ccccc2)nc1" ? not satisfied

Okay, and CC(NC(=S)N/N=C\c1ccccc1O)c1ccccc1 (stereo not drawn) ? not satisfied

Okay, and "CC(C)(C)NC(=S)N/N=C\c1ccccc1O" ? not satisfied

Okay, and "Oc1c(Br)cc(Br)cc1/C=N\n1cnnc1" ? satisfied

Okay, and "O=[N+]([O-])c1cc(Cl)cc([N+](=O)[O-])c1Nc1ccccc1" ? not satisfied

Okay, and Cc1c(C)c(C)c(C(O)c2ccccc2)c(C)c1C (stereo not drawn) ? not satisfied

Okay, and "Oc1c(Br)cc(Br)cc1C=Nc1ccccn1" ? satisfied

====

Assay: chemical genetic growth profiling, strain panel (AID 1159580)
Conditions: S. cerevisiae deletion strains, growth OD, locus YML124C, strain tub3
The whole screen tested about 5,500 compounds, of which about 2,000 (36%) were called active. Another 18% or so got no clear call; they are omitted. No stated cut-off is given here; in the data, active means normalized growth mostly below about 0.91 (no sharp cut-off); inconclusive means no clear call, values can overlap the other calls; inactive means mostly above about 0.92. This is one part of the list.
Select the matching outcome among active, inactive

# count of solved cases: 5
COMPOUND: CC1(C)C=CC(=O)[C@@]2(C)C1CC(=O)[C@]1(C)C2CC[C@@]2(C)[C@H](c3ccoc3)OC(=O)C3OC321 (some centres undefined)
GROUP_LABEL: inactive

COMPOUND: CC1(C)C(=O)C=C[C@@]2(C)C1CC(=O)[C@]1(C)C2CC[C@@]2(C)[C@H](c3ccoc3)OC(=O)[C@H]3O[C@]321 (some centres undefined)
GROUP_LABEL: inactive

COMPOUND: C[C@]12CCC3c4ccc(OS(=O)(=O)O)cc4CCC3C1CC[C@H]2O (some centres undefined)
GROUP_LABEL: inactive

COMPOUND: CC(C)[N+](C)(CCC(C(N)=O)(c1ccccc1)c1ccccc1)C(C)C
GROUP_LABEL: inactive

COMPOUND: C[C@]12CCC3c4ccc(O)cc4CCC3C1C[C@@H](O)[C@@H]2O (some centres undefined)
GROUP_LABEL: inactive

Could you check what this test reported for CC(=O)O[C@@H]1CC(=O)[C@@]2(C)C(CC(=O)[C@]3(C)C2CC[C@@]2(C)[C@H](c4ccoc4)OC(=O)C4OC423)C1(C)C (some centres undefined) ? inactive

Okay, and CC(C)C1COc2cc3oc(=O)ccc3cc2O1 (centres undefined) ? active

Okay, and CC(C)(C)NCC(O)c1cc(O)cc(O)c1 (centres undefined) ? inactive

Okay, and "CC(C)(O)[C@@H]1Cc2cc3ccc(=O)oc3cc2O1" ? inactive

====

Experiment: chemical genetic growth profiling, strain panel (AID 1159580)
Conditions: S. cerevisiae deletion strains, growth OD, locus YNL271C, strain bni1
The whole screen tested about 5,500 compounds, of which about 2,000 (36%) were called active. Not shown: some 18% with an inconclusive outcome. No stated cut-off is given here; in the data, active means normalized growth mostly below about 0.91 (no sharp cut-off); inconclusive means no clear call, values can overlap the other calls; inactive means mostly above about 0.92. The list shows a part of the results.
Select the matching outcome among 1 (yes) (active), 0 (no) (inactive)

Could you check what this test reported for "CC[n+]1c(-c2ccccc2)c2cc(N)ccc2c2ccc(N)cc21" ? 1 (yes)

Okay, and "CCOC(=O)c1c(C)cc(OC)cc1O" ? 0 (no)

Okay, and C[C@@H]1O[C@@H](OC[C@H]2OC(Oc3c(-c4ccc(O)c(O)c4)oc4cc(O)cc(O)c4c3=O)[C@H](O)[C@@H](O)[C@@H]2O)[C@H](O)[C@H](O)[C@H]1O (stereo partly specified) ? 0 (no)

====

Assay: chemical genetic growth profiling, strain panel (AID 1159580);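 also: tested at 20 µM; growth read once vehicle control cultures reached saturation at 30 °C; 1 = growth at the plate median or of vehicle wells; lower values mean less growth of the strain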
Conditions: S. cerevisiae deletion strains, growth OD, locus YPL106C, strain sse1
Hit rate of the full screen: of about 5,500 compounds, about 2,000 (36%) were called active. Roughly 18% stayed inconclusive and do not appear here. No stated cut-off is given here; in the data, active means normalized growth mostly below about 0.91 (no sharp cut-off); inconclusive means no clear call, values can overlap the other calls; inactive means mostly above about 0.92. This is one part of the list.
Select the matching outcome among y for active, n for inactive

Could you check what this test reported for C=CC1C2=CCOC(=O)C2=COC1OC1OC(CO)C(O)C(O)C1O (centres undefined) ? n

Okay, and "O=C(O[C@@H]1Cc2c(O)cc(O)cc2O[C@@H]1c1cc(O)c(=O)c2c(O)c(O)cc([C@H]3Oc4cc(O)cc(O)c4C[C@H]3OC(=O)c3cc(O)c(O)c(O)c3)c2c1)c1cc(O)c(O)c(O)c1" ? y

Okay, and COC(=O)[C@]1(C)CCC[C@]2(C)c3ccc(C(C)C)cc3C(=O)CC12 (some centres undefined) ? n

Okay, and CC(CC(C(N)=O)(c1ccccc1)c1ccccc1)N(C)C (centres undefined) ? n

====

Test: chemical genetic growth profiling, strain panel (AID 1159580);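 also: tested at 20 µM; growth read once vehicle control cultures reached saturation at 30 °C; 1 = growth at the plate median or of vehicle wells; lower values mean less growth of the strain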
Conditions: S. cerevisiae deletion strains, growth OD, locus YJR066W, strain TOR1 (second series), hits give low values
The whole screen tested about 5,500 compounds, of which about 2,000 (36%) were called active. Roughly 18% stayed inconclusive and do not appear here. The list shows a part of the results.
PROPERTY: normalized growth

For orientation, consider the following solved cases.
COMPOUND: O=C1/C(=C/c2ccccn2)CCc2ccccc21
normalized growth: 0.633 (inactive)
//
COMPOUND: Oc1c(Cl)cc(Cl)cc1/C=N\NC(=S)Nc1cc(C(F)(F)F)cc(C(F)(F)F)c1
normalized growth: 0.118 (active)
//
COMPOUND: Cc1cc(Cl)ccc1NNC(=O)c1sccc1Cl
normalized growth: 0.874 (inactive)
//
COMPOUND: O=C1Nc2ccccc2/C1=C/c1ccc(Oc2ccccc2)nc1
normalized growth: 0.851 (inactive)
//
COMPOUND: O=C(Nc1ccccc1)Nc1ccc(Cl)cc1[N+](=O)[O-]
normalized growth: 0.928 (inactive)

# lookup: normalized growth of "Cc1cc(Cl)ccc1NNC(=O)c1sccc1Br" 0.862 (inactive)

Okay, and "FC(F)(F)c1cccc(NC(=S)NN=C2CCCCCC2)c1" ? 0.827 (inactive)

Okay, and "O=[N+]([O-])c1cc(Cl)cc([N+](=O)[O-])c1Nc1ccccc1" ? 0.946 (inactive)

Okay, and Cc1nnc2n1N=C(c1ccc(CC(C)C)cc1)C(C)S2 (configuration not stated) ? 0.971 (inactive)

Okay, and "Cc1ccc(NNC(=O)c2cccs2)cc1Cl" ? 0.925 (inactive)

Okay, and "CCNC(=S)N/N=C\c1cc(Cl)cc(Cl)c1O" ? 0.654 (inactive)

Okay, and "O=C1C(Cl)=C(Oc2cc(Cl)c(Cl)cc2Cl)C(=O)c2ccccc21" ? 0.119 (active)

====

Experiment: chemical genetic growth profiling, strain panel (AID 1159580);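 also: tested at 20 µM; growth read once vehicle control cultures reached saturation at 30 °C; 1 = growth at the plate median or of vehicle wells; lower values mean less growth of the strain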
Details: S. cerevisiae deletion strains, growth OD, locus YNL322C, strain KRE1
Screen size: about 5,500 compounds; about 2,000 (36%) were called active. About 18% were inconclusive and are not listed. Rule as the data show it: active = normalized growth mostly below about 0.91 (no sharp cut-off); inconclusive = no clear call, values can overlap the other calls; inactive = mostly above about 0.92. This is one part of the list.
Select the matching outcome among yes (1) for active, no (0) for inactive

COMPOUND: COCCCNC(=S)N/N=C\c1cccc(OC)c1O
GROUP_LABEL: no (0)

COMPOUND: CCOC(=O)C1C(c2cccnc2)C(C(=O)OCC)C(O)(C(F)(F)F)NC1(O)C(F)(F)F (stereo not drawn)
GROUP_LABEL: no (0)

COMPOUND: Cc1ccccc1OCC(O)CO (stereo not drawn)
GROUP_LABEL: no (0)

COMPOUND: COc1ccccc1NC(=O)NCCSCc1ccccc1Cl
GROUP_LABEL: no (0)

COMPOUND: CC/C(=C(/CC)c1ccc(O)cc1)c1ccc(O)cc1
GROUP_LABEL: no (0)

Could you check what this test reported for "N#CC(C#N)=C(N)/C(C#N)=C/c1ccc(O)cc1" ? no (0)

Okay, and CCC(c1ccc(O)cc1)C(CC)c1ccc(O)cc1 (stereo not drawn) ? no (0)

Okay, and "N[C@H](C(=O)O)c1cc(O)cc(O)c1" ? no (0)

Okay, and "N#C/C(=C\c1ccc(O)c(O)c1)C(=O)NCCc1ccccc1" ? no (0)

Okay, and "CCOC(=O)/C(C#N)=C/c1ccc(Br)cc1" ? no (0)

Okay, and "O=C(O[C@@H]1Cc2c(O)cc(O)cc2O[C@@H]1c1cc(O)c(=O)c2c(O)c(O)cc([C@H]3Oc4cc(O)cc(O)c4C[C@H]3O)c2c1)c1cc(O)c(O)c(O)c1" ? yes (1)

Okay, and C[N+](C)(C)CC(O)CC(=O)O (stereo not drawn) ? no (0)

Okay, and "COc1cc(/C=C(\C#N)C(N)=S)cc(OC)c1OC" ? no (0)

Data provenance is PubChem BioAssay AID1159580.
